The reported numbers originate from patent US20250051338A1.

Target: UniProt:P29597
Assay: TYK2 degradation MSD assay in human PBMC cells
Format: cell-based
Set-up: endogenous in cells; host or cells: human PBMC
Conditions: 4 to 24 hours incubation, read-out: TYK2 MSD DC50 rating in human PBMC
Listing: DC50 of selected molecules

These solved cases illustrate the format of a correct answer.
INSERT INTO assay_data (molecule, reported_result) VALUES
  ('CNc1cc(Nc2cccc(CN3CCC4(CC3)CC(Cc3ccc5c(c3)n(C)c(=O)n5C3CCC(=O)NC3=O)C4)c2)nn2c(C(=O)NC3CC3)cnc12 (centres unmarked)', '> 100 nM'),
  ('CNc1cc(-c2ccc(-c3ccc(CN4CCN(c5ccc(-c6ccc7c(c6)n(C)c(=O)n7C6CCC(=O)NC6=O)cc5)CC4)cn3)cc2)nn2c(C(=O)N[C@@H]3C[C@@H]3F)cnc12 (some centres unmarked)', '> 100 nM'),
  ('CNc1cc(Nc2cccc(-c3ccc(CN4CCN(c5ccc(-c6ccc7c(c6)n(C)c(=O)n7C6CCC(=O)NC6=O)cc5)CC4)cn3)c2)nn2c(C(=O)NC3CCC3)cnc12 (centres unmarked)', '> 100 nM'),
  ('CNc1cc(Nc2cccn(-c3ccc(C(=O)N4CCC5(CC4)CCN(c4ccc6c(c4)n(C)c(=O)n6C4CCC(=O)NC4=O)C5)cn3)c2=O)nn2c(C(=O)N[C@@H]3C[C@@H]3F)cnc12 (some centres unmarked)', '< 1 nM');

Continue with the molecule presented below.
Tell me measured DC50 for CNc1cc(-c2cn(C)c3c(-c4ccc(CN5CCN(c6ccc(-c7ccc8c(c7)n(C)c(=O)n8C7CCC(=O)NC7=O)cc6)CC5)cc4)cccc23)nn2c(C(=O)N[C@@H]3C[C@@H]3F)cnc12 (some centres unmarked) please.
> 100 nM

====

Listing: DC50 of selected molecules
Target: TYK2 (Homo sapiens, UniProt P29597)
Sequence (P29597 whole entry): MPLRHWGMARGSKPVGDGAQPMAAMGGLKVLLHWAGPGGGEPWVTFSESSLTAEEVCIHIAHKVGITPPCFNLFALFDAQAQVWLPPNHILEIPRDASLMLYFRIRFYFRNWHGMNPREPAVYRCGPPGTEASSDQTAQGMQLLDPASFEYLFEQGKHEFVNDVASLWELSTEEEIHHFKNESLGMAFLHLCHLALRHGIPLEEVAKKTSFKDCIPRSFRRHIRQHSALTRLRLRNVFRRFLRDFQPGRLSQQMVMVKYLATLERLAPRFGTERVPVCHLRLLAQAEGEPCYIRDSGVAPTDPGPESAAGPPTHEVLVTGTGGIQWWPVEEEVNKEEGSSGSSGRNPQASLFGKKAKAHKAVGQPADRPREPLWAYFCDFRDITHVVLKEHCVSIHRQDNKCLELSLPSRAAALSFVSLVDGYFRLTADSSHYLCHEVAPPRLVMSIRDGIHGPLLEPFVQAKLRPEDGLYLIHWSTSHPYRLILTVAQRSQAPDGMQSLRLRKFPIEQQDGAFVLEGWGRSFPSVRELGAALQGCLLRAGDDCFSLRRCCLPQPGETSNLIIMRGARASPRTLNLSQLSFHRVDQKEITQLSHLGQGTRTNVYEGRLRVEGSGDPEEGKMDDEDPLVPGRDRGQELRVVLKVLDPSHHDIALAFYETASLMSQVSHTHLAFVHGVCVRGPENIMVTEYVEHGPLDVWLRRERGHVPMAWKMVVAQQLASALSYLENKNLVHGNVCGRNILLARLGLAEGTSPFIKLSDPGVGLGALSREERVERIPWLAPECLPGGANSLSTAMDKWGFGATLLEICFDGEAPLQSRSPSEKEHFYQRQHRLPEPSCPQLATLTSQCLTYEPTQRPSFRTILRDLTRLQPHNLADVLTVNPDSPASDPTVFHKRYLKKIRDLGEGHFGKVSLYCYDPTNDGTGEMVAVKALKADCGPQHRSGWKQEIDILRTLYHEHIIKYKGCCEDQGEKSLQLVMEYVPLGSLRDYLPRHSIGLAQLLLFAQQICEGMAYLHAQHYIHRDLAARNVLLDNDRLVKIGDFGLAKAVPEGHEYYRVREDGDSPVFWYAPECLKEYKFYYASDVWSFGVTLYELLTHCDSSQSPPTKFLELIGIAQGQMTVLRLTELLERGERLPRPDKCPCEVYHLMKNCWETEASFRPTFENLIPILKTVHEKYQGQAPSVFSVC
Assay: TYK2 degradation MSD assay in OCI-LY10 cells
Type: cell-based
Design: endogenous in cells; host or cells: EBV-B cells
Conditions: 4 to 24 hours incubation, read-out: TYK2 MSD DC50 rating in OCI-LY10

These solved cases illustrate the format of a correct answer.
INSERT INTO assay_data (molecule, reported_result) VALUES
  ('Cn1c(=O)n(C2CCC(=O)NC2=O)c2ccc(C#CC3CCN(Cc4ccc(-c5cccc(Nc6ccc7ncc(C(=O)NC8CC8)n7n6)c5)nc4)CC3)cc21 (stereo not shown)', '> 100 nM'),
  ('CNc1cc(Nc2cccc(CN3CCC([C@@H]4CCN(c5ccc6c(c5)n(C)c(=O)n6C5CCC(=O)NC5=O)C4)CC3)c2)nn2c(C(=O)NC3CC3)ncc12 (stereo partly shown)', '< 1 nM'),
  ('CNc1cc(Nc2cccc(CN3CCC(OC4CC(c5ccc6c(c5)n(C)c(=O)n6C5CCC(=O)NC5=O)C4)CC3)c2)nn2c(C(=O)NC3CC3)cnc12 (stereo not shown)', '< 1 nM'),
  ('CNc1cc(Nc2cccc(CN3CCC(c4cccc5c4n(C)c(=O)n5C4CCC(=O)NC4=O)CC3)c2)nn2c(C(=O)NC3CC3)cnc12 (stereo not shown)', '> 100 nM');

Tell me measured DC50 for CNC(=O)c1cnc(NC(=O)NCCCCCCCCCc2cccc3c2n(C)c(=O)n3C2CCC(=O)NC2=O)cc1Nc1cccc(-c2ncc(F)cn2)c1OC (stereo not shown) please.
> 100 nM

Tell me measured DC50 for CNc1cc(Nc2cccn(-c3ccc(C(=O)NC4CCC(CN(C)C5CCN(Cc6ccc7c(c6)n(C)c(=O)n7C6CCC(=O)NC6=O)CC5)CC4)cn3)c2=O)nn2c(C(=O)N[C@@H]3C[C@@H]3F)cnc12 (stereo partly shown) please.
< 1 nM

Tell me measured DC50 for CNc1cc(-c2ccc(C3CCN(CC4CCN(c5ccc(-c6ccc7c(c6)n(C)c(=O)n7C6CCC(=O)NC6=O)cc5)CC4)CC3)cc2)nn2c(C(=O)N[C@@H]3C[C@@H]3F)cnc12 (stereo partly shown) please.
> 100 nM

Tell me measured DC50 for CNc1cc(Nc2cccn(-c3ccc(C(=O)N(C)CCCOCCCc4cccc5c4n(C)c(=O)n5C4CCC(=O)NC4=O)cn3)c2=O)nn2c(C(=O)N[C@@H]3C[C@@H]3F)cnc12 (stereo partly shown) please.
> 100 nM

Tell me measured DC50 for CNc1cc(Nc2cccn(-c3ccc(C(=O)N4CCN([C@H]5CC[C@@H](c6ccc(-c7ccc8c(c7)n(C)c(=O)n8C7CCC(=O)NC7=O)cc6)CC5)CC4)cn3)c2=O)nn2c(C(=O)N[C@@H]3C[C@@H]3F)cnc12 (stereo partly shown) please.
> 100 nM

Tell me measured DC50 for CNc1cc(Nc2cccn(-c3ccc(C(=O)NC4CCC(C(=O)N5CCC6(CN(CC#Cc7ccc8c(c7)n(C)c(=O)n8C7CCC(=O)NC7=O)C6)C5)CC4)cn3)c2=O)nn2c(C(=O)N[C@@H]3C[C@@H]3F)cnc12 (stereo partly shown) [Example K384] please.
> 100 nM
